src = the supplement of paper PMC4723716

Below, each entry is listed with its recorded IC50 of gametocyte viability.
Test system: Plasmodium falciparum NF54 gametocytes
Conditions: gametocyte stage: Stage V Dose Response IC50 (µM); assay protocol: TSSA, 384; incubation time: 72 h
Structures can show the parent of a compound that is named as a salt.
measurement label: IC50 of gametocyte viability

compound | measurement label | experimental value
CCCCN(CCCC)CC(O)c1cc(Cl)cc2c1-c1ccc(Cl)cc1/C2=C/c1ccc(Cl)cc1 (stereo not drawn) | IC50 of gametocyte viability | > 12.5 µM
O=C1C(O)=C([C@H]2CC[C@H](c3ccc(Cl)cc3)CC2)C(=O)c2ccccc21 | IC50 of gametocyte viability | > 12.5 µM
COc1cc(NC(C)CCCN)c2ncccc2c1 (stereo not drawn) | IC50 of gametocyte viability | > 11.3 µM
CCN(CC)Cc1cc(Nc2ccnc3cc(Cl)ccc23)ccc1O | IC50 of gametocyte viability | > 9.39 µM
CC(C)NC(=N)NC(=N)Nc1ccc(Cl)c(Cl)c1 [Chlorproguanil hydrochloride/1.11] | IC50 of gametocyte viability | > 11 µM
C=C[C@H]1CN2CC[C@H]1C[C@H]2[C@H](O)c1ccnc2ccc(OC)cc12 [Quinine sulfate dihydrate (coeff. 2)] | IC50 of gametocyte viability | > 12.5 µM
C=C[C@H]1CN2CC[C@H]1C[C@@H]2[C@@H](O)c1ccnc2ccc(OC)cc12 | IC50 of gametocyte viability | > 12.5 µM
CCN(CCO)CCCC(C)Nc1ccnc2cc(Cl)ccc12 (stereo not drawn) [Hydroxychloroquine] | IC50 of gametocyte viability | > 6.25 µM
CCCCN(CCCC)CCC(O)c1cc2c(Cl)cc(Cl)cc2c2cc(C(F)(F)F)ccc12 (stereo not drawn) | IC50 of gametocyte viability | > 12.5 µM
Nc1ccc(S(=O)(=O)Nc2ncccn2)cc1 | IC50 of gametocyte viability | > 12.5 µM
C[C@H]1[C@@H](O)O[C@@H]2O[C@@]3(C)CC[C@H]4[C@H](C)CC[C@@H]1[C@@]24OO3 [Artenimol (Dihydro artemisinin)] | IC50 of gametocyte viability | > 12.5 µM
C[C@@H]1C[C@@H]([C@H](O)CC2CC(=O)NC(=O)C2)C(=O)[C@@H](C)C1 [Cycloheximide] | IC50 of gametocyte viability | 4.62 µM
N=C(N)c1ccc(OCCCCCOc2ccc(C(=N)N)cc2)cc1 | IC50 of gametocyte viability | 2.36 µM
